system: Mitogen-activated protein kinase 10 (Homo sapiens)
procedure_text: Inhibition of MAPK10 (unknown origin) at 10 uM relative to control
If the reported inhibition equals or exceeds 20%, assign Criterion met. If not, assign Criterion not met.

Here's what some known entries look like.
{"structure_smiles": "C[C@@H](Nc1c(C(N)=O)nnc2cc(-c3ccc(S(C)(=O)=O)cc3)ccc12)C1CC1", "system": "Mitogen-activated protein kinase 10 (Homo sapiens)", "group_label": "Criterion met"}
{"structure_smiles": "CC(C)Nc1c(C(N)=O)nnc2ccc(-c3cn[nH]c3)cc12", "system": "Mitogen-activated protein kinase 10 (Homo sapiens)", "group_label": "Criterion met"}
{"structure_smiles": "CC(C)Nc1c(C(N)=O)nnc2cc(-c3ccncc3)ccc12", "system": "Mitogen-activated protein kinase 10 (Homo sapiens)", "group_label": "Criterion met"}
{"structure_smiles": "CC(C)Nc1c(C(N)=O)cnc2cc(-c3ccc(S(C)(=O)=O)cc3)ccc12", "system": "Mitogen-activated protein kinase 10 (Homo sapiens)", "group_label": "Criterion not met"}
{"structure_smiles": "CC(C)Nc1c(C(N)=O)nnc2ccc(-c3ccncc3)cc12", "system": "Mitogen-activated protein kinase 10 (Homo sapiens)", "group_label": "Criterion met"}

(Q) // inclusive: inhibition at least 20%? input: "CC(C)Nc1c(C(N)=O)nnc2cc(N3CCOCC3)ccc12"
(A) Criterion not met

(Q) Let us now turn to "CS(=O)(=O)c1ccc(-c2ccc3c(NC4CCC4)c(C(N)=O)nnc3c2)cc1"
(A) Criterion met
